The reported numbers originate from paper PMC8520056.

Assay: In vivo pharmacokinetic study after oral administration
Set-up: species or system Sprague-Dawley rats
Conditions: male, Sprague-Dawley, rat, plasma, 40 mg/kg
MEASUREMENT_LABEL: AUC(0-t) (ng·h/mL)
Your answer should be a plain number; it is taken to be in ng·h/mL.

Please give the measured AUC(0-t) for this molecule: C=C1CC[C@@H]2[C@](C)(CO)[C@H](O)CC[C@@]2(C)[C@@H]1C/C=C1/C(=O)OC[C@H]1O [AG, Andrographolide] 351

* * *

Experiment: Transwell transport study in MDCK-MDR1 monolayer
Assay type: in vitro ADME, canine
Conditions: dog
MEASUREMENT_LABEL: Papp A→B at 120 min, 20 µM (×10⁻⁶ cm/s)
Your answer should be a plain number; it is taken to be in ×10⁻⁶ cm/s.

Please give the measured Papp A→B at 120 min, 20 µM for this compound: C=C1CC[C@@H]2[C@](C)(CO)[C@H](O)CC[C@@]2(C)[C@@H]1C/C=C1/C(=O)OC[C@H]1O [AG, Andrographolide] 0.47
